Target: GPR35 (Homo sapiens)
Sequence (Q9HC97 whole entry): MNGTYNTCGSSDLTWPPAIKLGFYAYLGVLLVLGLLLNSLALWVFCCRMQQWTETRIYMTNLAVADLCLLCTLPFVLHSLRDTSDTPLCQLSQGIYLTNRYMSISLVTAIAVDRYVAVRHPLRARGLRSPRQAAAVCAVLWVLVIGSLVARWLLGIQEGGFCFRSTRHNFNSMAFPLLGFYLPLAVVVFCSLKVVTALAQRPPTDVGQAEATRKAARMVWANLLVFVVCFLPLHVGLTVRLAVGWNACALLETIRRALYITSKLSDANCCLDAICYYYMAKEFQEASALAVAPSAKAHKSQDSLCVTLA
Assay: cellular GPR35 phospho-ERK HTRF assay (inhibition of lodoxamide-induced phospho-ERK signal)
Details: GPR35-CHO-K1-mt aequorin-Gα16 cell line; agonist lodoxamide at EC80; read-out: Activity Group (IC50, inhibition of GPR35 agonist-induced phospho-ERK signal)
pIC50: −log10 of the molar value.
Entries and their measured pIC50 follow.

Worked examples, 10 molecules total:
                                   molecule         tested_system  test_readout  recorded_result
0  Cc1ncc(-c2cc(C(=O)Nc3ccc(COCc4ccccc4)c(F)c3)ccn2)cc1C(=O)O  GPR35 (Homo sapiens)         pIC50           > 6.00
1  Cc1ncc(-c2cccc(C(=O)Nc3ccc(CS(=O)(=O)c4ccc(Cl)cc4)cc3)c2)cc1C(=O)O  GPR35 (Homo sapiens)         pIC50           > 6.00
2  Cc1ncc(-c2cccc(C(=O)Nc3cccc(COCc4ccccc4)c3)c2)cc1C(=O)O  GPR35 (Homo sapiens)         pIC50     5.00 to 6.00
3  Cc1ncc(-c2cccc(C(=O)Nc3ccc(COCc4ccccc4)cc3)c2)cc1C(=O)O  GPR35 (Homo sapiens)         pIC50           > 6.00
4  Cc1ncc(-c2cccc(C(=O)Nc3ccc(COCc4ccccc4)cc3)c2F)cc1C(=O)O  GPR35 (Homo sapiens)         pIC50     5.00 to 6.00
5  COCCNc1ncc(-c2cccc(C(=O)Nc3ccc(OCCc4ccccc4)cc3)c2)cc1C(=O)O  GPR35 (Homo sapiens)         pIC50           > 6.00
6  Cc1ncc(-c2ccc(F)c(C(=O)Nc3ccc(COCc4ccccc4)c(F)c3)c2)cc1C(=O)O  GPR35 (Homo sapiens)         pIC50           > 6.00
7  Cc1ncc(-c2ccc(F)c(C(=O)Nc3ccc(COC4CC4)c(F)c3)c2)cc1C(=O)O  GPR35 (Homo sapiens)         pIC50     5.00 to 6.00
8  Cc1cc(C(=O)Nc2ccc(COCc3ccccc3)cc2)cc(-c2cnc(C)c(C(=O)O)c2)n1  GPR35 (Homo sapiens)         pIC50           > 6.00
9  Cc1ncc(-c2ccnc(C(=O)Nc3ccc(OCCc4ccccc4)cc3)c2)cc1C(=O)O  GPR35 (Homo sapiens)         pIC50           > 6.00

Which pIC50 value is on record for `Cc1ncc(-c2cncc(C(=O)Nc3ccc(OCCc4ccccc4)cc3)n2)cc1C(=O)O` ?
5.00 to 6.00

Proceed to `Cc1ncc(-c2ccc(F)c(C(=O)Nc3ccc(COCc4ccccc4)cc3)c2)cc1C(=O)O`
> 6.00

Same question, `Cc1ncc(-c2cc(C(=O)Nc3ccc(COCc4ccccc4)cc3)ccc2F)cc1C(=O)O` this time
> 6.00

Also need Cc1ncc(-c2cccc(C(=O)Nc3ccc(OC(C)C4CC4)cc3)c2)cc1C(=O)O (stereo not shown) , thanks.
> 6.00

Can you check `COc1cccc(S(=O)(=O)Cc2ccc(NC(=O)c3cccc(-c4cnc(C)c(C(=O)O)c4)c3)cc2)c1` next?
5.00 to 6.00

Likewise for `Cc1ncc(-c2cccc(C(=O)Nc3ccc(COCc4ccccc4)cc3F)c2)cc1C(=O)O` ?
5.00 to 6.00
